Taken from patent US12528790B2.

Test system: RSV A2 strain
Experiment: In vitro CPE (CytoPathic Effect) inhibition effect evaluation test, RSV type A
Assay type: cell-based
Conditions: human respiratory syncytial virus; inhibitory effect against RSV type A (RSV A2 strain), HEp-2 cells, CPE inhibition; read-out: EC50
// values below are reported EC50
quantity.measured: EC50

[[record]]
compound = "O=C(NC1(C(=O)O)C2CC3CC(C2)CC1C3)c1cnc(-c2cn(C3CCC(F)(F)CC3)c3cc(OC4CCN(CC(F)(F)C(F)F)CC4)ccc23)nc1C(F)(F)F (stereo not drawn)"
assay_target = "RSV A2 strain"
result = "< 10 nM"

[[record]]
compound = "COc1cnc(N2CCC(Oc3ccc4c(c3)C3(CCCCC3)CN4c3ncc(C(=O)NC4(C(=O)O)C5CC6CC(C5)CC4C6)c(C(F)(F)F)n3)CC2)nc1 (stereo not drawn)"
assay_target = "RSV A2 strain"
result = "< 10 nM"

[[record]]
compound = "CC(F)(F)CN1CCC(Oc2ccc3c(-c4ccc(C(=O)NC5(C(=O)O)C6CC7CC(C6)CC5C7)c(C(F)(F)F)n4)cn(C4CCC(F)(F)CC4)c3c2)CC1 (stereo not drawn)"
assay_target = "RSV A2 strain"
result = "< 10 nM"

[[record]]
compound = "CN(C)C(=O)C1(NC(=O)c2cnc(N3CC4(CCOCC4)c4cc(OC5CCN(c6ncccn6)CC5)ccc43)nc2C(F)(F)F)C2CC3CC(C2)CC1C3 (stereo not drawn)"
assay_target = "RSV A2 strain"
result = "< 10 nM"

[[record]]
compound = "COc1ccc2c(c1)c(-c1ncc(C(=O)NC3(C(=O)O)C4CC5CC(C4)CC3C5)c(C(F)(F)F)n1)cn2C1CCC(F)(F)CC1 (stereo not drawn)"
assay_target = "RSV A2 strain"
result = "10 to 100 nM"

[[record]]
compound = "O=C(NC1(C(=O)O)C2CC3CC(C2)CC1C3)c1cnc(N2CC3(CCCCC3)c3cc(OC4CCN(CC(F)(F)F)C4)ccc32)nc1C(F)(F)F (stereo not drawn)"
assay_target = "RSV A2 strain"
result = "< 10 nM"


###

// values below are reported EC50
Test system: RSV A2 strain
Test: In vitro CPE (CytoPathic Effect) inhibition effect evaluation test, RSV type A
Assay type: cell-based
Details: human respiratory syncytial virus; inhibitory effect against RSV type A (RSV A2 strain), HEp-2 cells, CPE inhibition; read-out: EC50
quantity.measured: EC50

[[record]]
molecule = "O=C(NC1(C(=O)O)C2CC3CC(C2)CC1C3)c1cnc(-c2cn(C3CCC(F)(F)CC3)c3cc(OC4CCN(C(=O)C5CC5)CC4)ccc23)nc1C(F)(F)F (centres unmarked)"
result = "< 10 nM"

[[record]]
molecule = "O=C(NC1(C(=O)O)C2CC3CC(C2)CC1C3)c1cnc(-c2cn(C3CCC(F)(F)CC3)c3cc(OC4CCC(OC5CC5)CC4)ccc23)nc1C(F)(F)F (single isomer, unassigned)"
result = "< 10 nM"

[[record]]
molecule = "O=C(NC1(C(=O)O)CCCCC1)c1cnc(N2CCc3cc(OCC4CN(CC(F)(F)F)CCO4)ccc32)nc1C(F)(F)F (racemic)"
result = "10 to 100 nM"

[[record]]
molecule = "O=C(NC1(C(=O)O)C2CC3CC(C2)CC1C3)c1cnc(N2CC3(CCOCC3)c3cc(CCCC4CCOCC4)ccc32)nc1C(F)(F)F (centres unmarked)"
result = "< 10 nM"

[[record]]
molecule = "CC(F)(F)c1nc(N2CC3(CCOCC3)c3cc(OC4CCN(CC5COC5)CC4)ccc32)ncc1C(=O)NC1(C(=O)O)C2CC3CC(C2)CC1C3 (centres unmarked)"
result = "< 10 nM"

[[record]]
molecule = "O=C(NC1(C(=O)O)C2CC3CC(C2)CC1C3)c1cnc(-c2cn(Cc3ccccc3)c3cc(OC4CCN(c5ncc(F)cn5)CC4)ccc23)nc1C(F)(F)F (centres unmarked)"
result = "< 10 nM"

[[record]]
molecule = "COc1cncc(COc2ccc3c(c2)CCN3c2ncc(C(=O)NC3(C(=O)O)CCCCC3)c(C(F)(F)F)n2)c1"
result = "10 to 100 nM"

[[record]]
molecule = "CC(F)(F)c1nc(-c2cn(C3CC3)c3cc(O[C@H]4CC[C@H](N5CC(F)(F)C5)CC4)ccc23)ncc1C(=O)NC1(C(=O)O)C2CC3CC(C2)CC1C3 (some centres unmarked)"
result = "< 10 nM"

[[record]]
molecule = "COC1CC(n2cc(-c3ncc(C(=O)NC4(C(=O)O)C5CC6CC(C5)CC4C6)c(C(F)(F)F)n3)c3ccc(OC4CCN(c5ncc(F)cn5)CC4)cc32)C1 (centres unmarked)"
result = "< 10 nM"

[[record]]
molecule = "O=C(NC1(C(=O)O)C2CC3CC(C2)CC1C3)c1cnc(N2c3cc(F)c(OC4CCN(c5ncccn5)CC4)cc3C3CCCCCC32)nc1C(F)(F)F (single isomer, unassigned)"
result = "< 10 nM"

[[record]]
molecule = "O=C(NC1(C(=O)O)C2CC3CC(C2)CC1C3)c1ccc(-c2cn([C@H]3CC[C@@H](OCc4ccccc4)CC3)c3cc(OC4CCN(c5ncccn5)CC4)ccc23)nc1C(F)(F)F (some centres unmarked)"
result = "< 10 nM"


###

Tested on: RSV A2 strain
Assay: In vitro CPE (CytoPathic Effect) inhibition effect evaluation test, RSV type A
Format: cell-based
Settings: human respiratory syncytial virus; inhibitory effect against RSV type A (RSV A2 strain), HEp-2 cells, CPE inhibition; read-out: EC50
// values below are reported EC50
quantity.measured: EC50

[[record]]
compound = "O=C(NC1(C(=O)O)C2CC3CC(C2)CC1C3)c1ccc(-c2cn(-c3cccnc3)c3cc(OC4CCN(c5ncccn5)CC4)ccc23)nc1C(F)(F)F (stereo not drawn) [Compound I-177]"
assay_target = "RSV A2 strain"
quantity_measured = "EC50"
result = "< 10 nM"

[[record]]
compound = "O=C(NC1(C(=O)O)C2CC3CC(C2)CC1C3)c1cnc(-c2cn(C3CCC(F)(F)CC3)c3cc(OC4CCN(c5ncc(F)s5)CC4)ccc23)nc1C(F)(F)F (stereo not drawn) [Compound I-420]"
assay_target = "RSV A2 strain"
quantity_measured = "EC50"
result = "< 10 nM"

[[record]]
compound = "O=C(NC1(C(=O)O)C2CC3CC(C2)CC1C3)c1cnc(-c2cn(C3CCC(F)(F)CC3)c3cc(CN4CCC(N5CC(F)(F)C5)CC4)ccc23)nc1C(F)(F)F (stereo not drawn) [Compound I-417]"
assay_target = "RSV A2 strain"
quantity_measured = "EC50"
result = "< 10 nM"

[[record]]
compound = "O=C(NC1(C(=O)O)C2CC3CC(C2)CC1C3)c1cnc(N2CC3(CCOCC3)c3cc(CC4CCN(c5ncccn5)CC4)ccc32)nc1C(F)(F)F (stereo not drawn) [Compound I-119]"
assay_target = "RSV A2 strain"
quantity_measured = "EC50"
result = "< 10 nM"

[[record]]
compound = "NC(=O)c1cc(C(=O)NC2(C(=O)O)C3CC4CC(C3)CC2C4)c(C(F)(F)F)nc1N1CCc2cc(OCCC3CCOCC3)ccc21 (stereo not drawn) [Compound I-156]"
assay_target = "RSV A2 strain"
quantity_measured = "EC50"
result = "100 to 5000 nM"

[[record]]
compound = "O=C(NC1(C(=O)O)C2CC3CC(C2)CC1C3)c1cnc(N2CC3(CCOCC3)c3cc(-n4ncc5c4CCN(CC(F)(F)F)C5)ccc32)nc1C(F)(F)F (stereo not drawn) [Compound I-472]"
assay_target = "RSV A2 strain"
quantity_measured = "EC50"
result = "< 10 nM"


###

System: RSV B (Wash/18537 strain)
Assay: In vitro CPE (CytoPathic Effect) inhibition effect evaluation test, RSV type B
Assay type: cell-based
Conditions: human respiratory syncytial virus, HEp-2, 120 h, HEp-2 cells, RSV B (Wash/18537 strain), 5 days, CellTiter-Glo; read-out: EC50, inhibitory effect against RSV type B (CPE inhibition)
// values below are reported EC50
quantity.measured: EC50

[[record]]
compound = "CCC(CC)n1cc(-c2ncc(C(=O)NC3(C(=O)O)C4CC5CC(C4)CC3C5)c(C(C)(F)F)n2)c2ccc(O[C@H]3CC[C@H](N4CC(F)(F)C4)CC3)cc21 (stereo partly shown)"
result = "2.1 nM"

[[record]]
compound = "O=C(NC1(C(=O)O)C2CC3CC(C2)CC1C3)c1cnc(-c2nn(C3CCOCC3)c3cc(OC4CCN(c5ncccn5)CC4)ccc23)nc1C(F)(F)F (stereo not shown)"
result = "3 nM"

[[record]]
compound = "O=C(NC1(C(=O)O)C2CC3CC(C2)CC1C3)c1ccc(-c2cn(-c3ccccc3)c3cc(OC4CCN(c5ncccn5)CC4)ccc23)nc1C(F)(F)F (stereo not shown)"
result = "2.8 nM"

[[record]]
compound = "O=C(NC1(C(=O)O)C2CC3CC(C2)CC1C3)c1cnc(N2CC3(CCOCC3)c3cc(OC4CCN(c5ncccn5)CC4)ccc32)nc1C(F)(F)F (stereo not shown)"
result = "0.34 nM"

